B1: TPR 5TU (parent)
chain: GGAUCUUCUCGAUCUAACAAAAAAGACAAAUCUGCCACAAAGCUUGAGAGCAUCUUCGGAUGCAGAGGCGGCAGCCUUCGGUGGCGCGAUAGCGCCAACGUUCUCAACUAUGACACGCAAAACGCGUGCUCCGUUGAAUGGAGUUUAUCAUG

- Variants of: B1
- ASSAY_EXPLANATION: polymerase ribozyme fitness, log enrichment relative to wild type (log ratio); higher = more active; in vitro selection for triplet polymerase activity
Variants at the floor of the assay were thinned out.
MEASUREMENT_KIND: polymerase ribozyme fitness (log ratio)

Lab note: A39U U77G G124C U135G U146A gave polymerase ribozyme fitness (log ratio) of ≤ -4.2

Looking up C8A A22G U56A C57U C85G , I see its polymerase ribozyme fitness (log ratio) listed as ≤ -4.2

// A3G A30G C38A G83A U101G : polymerase ribozyme fitness (log ratio) value = ≤ -4.2

Memo: A22U C114A , reported polymerase ribozyme fitness (log ratio): -3.29

Value of polymerase ribozyme fitness (log ratio) reported for the variant A40U C63G is 0.0879

Input A39U G58C G88A . Output polymerase ribozyme fitness (log ratio): ≤ -4.2

Just so you know, measured polymerase ribozyme fitness (log ratio) for G88U U90C G133C A137C came out at ≤ -4.2

According to the records, this variant G42C C95A displays polymerase ribozyme fitness (log ratio) of ≤ -4.2

// sample A21C G42A C54A C96G U102G , its polymerase ribozyme fitness (log ratio) was ≤ -4.2

Item: U56G G84U A97U C99G G133U | polymerase ribozyme fitness (log ratio): ≤ -4.2

Consider A49C C103G A110C . Its measured polymerase ribozyme fitness (log ratio) is ≤ -4.2

// polymerase ribozyme fitness (log ratio) lookup, variant = C51U C54U C85A A98U , result: -2.81

The variant listed as A29G G59U A60U C114U shows polymerase ribozyme fitness (log ratio) equal to ≤ -4.2
